TESTED_ON: T1, recombinant rat MASP1 active protease (amino acids 302-704, C-terminal His Tag) (rat, UniProt Q8CHN8 302-704)
T1 sequence: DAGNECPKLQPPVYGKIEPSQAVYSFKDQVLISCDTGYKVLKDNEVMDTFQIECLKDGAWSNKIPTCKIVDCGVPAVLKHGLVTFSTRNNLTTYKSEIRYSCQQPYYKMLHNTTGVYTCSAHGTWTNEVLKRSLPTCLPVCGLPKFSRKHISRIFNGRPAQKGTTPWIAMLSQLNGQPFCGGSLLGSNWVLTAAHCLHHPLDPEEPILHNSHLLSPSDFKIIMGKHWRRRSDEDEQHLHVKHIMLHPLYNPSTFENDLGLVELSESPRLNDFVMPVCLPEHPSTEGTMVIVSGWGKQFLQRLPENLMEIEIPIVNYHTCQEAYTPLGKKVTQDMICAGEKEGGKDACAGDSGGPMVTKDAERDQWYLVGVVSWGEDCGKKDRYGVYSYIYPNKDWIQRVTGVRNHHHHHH
TEST: cell-based or functional assay
Numbered stars: 1 amine (or outer) side, 2 acyl side, 3 side chain; on linkers, the order of the positions; unused ones are H or OH. Bridge positions count the residues as written; N and C are the ends. Square brackets hold non-standard residues; d marks the D form. Ends that are not written are not given here. X4 = (1S,3R)‑3‑(Amino)cyclopentanecarboxylic acid, O=C([C@H]1CC[C@@H](N[*:1])C1)[*:2]; Oic = O=C(O)[C@@H]1C[C@@H]2CCCC[C@@H]2N1; NMeI = CC[C@H](C)[C@H](NC)C(=O)O; tBuAla = CC(C)(C)C[C@H](N)C(=O)O; (3-Me)H = L-3-methylhistidine; PEG4 = NCCOCCOCCOCCOCCC(=O)O; Pen = CC(C)(S)[C@H](N)C(=O)O; NMeA = CN[C@@H](C)C(=O)O; Sar = CNCC(=O)O
MEASURED_PARAMETER: rat MASP1 IC50

Record excerpt, results attached:
INSERT INTO results (binder, obs_value) VALUES
  ('[Sar]ICSRSLP[Oic]I[Pen]IP[X4]-OH (disulfide 3-11; N-terminus assumed; SMILES CC[C@H](C)[C@H](NC(=O)CNC)C(=O)N[C@H]1CSSC(C)(C)[C@@H](C(=O)N[C@H](C(=O)N2CCC[C@H]2C(=O)N[C@@H]2CC[C@H](C(=O)O)C2)[C@@H](C)CC)NC(=O)[C@H]([C@@H](C)CC)NC(=O)[C@@H]2C[C@@H]3CCCC[C@@H]3N2C(=O)[C@@H]2CCCN2C(=O)[C@H](CC(C)C)NC(=O)[C@H](CO)NC(=O)[C@H](CCCNC(=N)N)NC(=O)[C@H](CO)NC1=O) [Example 452: ((N-Me)G)-IC+SRSLP-(Oic)-I-(Pen)+IP-((1S,3R)-3-(Amino)cyclopentanecarboxylic acid)-OH]', '36 nM'),
  ('G[NMeI]CSRSLPPICIP[dD]-OH (disulfide 3-11; N-terminus assumed; SMILES CC[C@H](C)[C@@H]1NC(=O)[C@@H]2CCCN2C(=O)[C@@H]2CCCN2C(=O)[C@H](CC(C)C)NC(=O)[C@H](CO)NC(=O)[C@H](CCCNC(=N)N)NC(=O)[C@H](CO)NC(=O)[C@@H](NC(=O)[C@H]([C@@H](C)CC)N(C)C(=O)CN)CSSC[C@@H](C(=O)N[C@H](C(=O)N2CCC[C@H]2C(=O)N[C@H](CC(=O)O)C(=O)O)[C@@H](C)CC)NC1=O) [Example 276: G-((N-Me)I)-C+SRSLPPIC+IPd-OH]', '200 nM'),
  ('[NMeA]ICSRS[tBuAla]P[(3R,6R)‑1,1‑Difluoro‑5‑azaspiro(2.4)heptane‑6‑carboxylic acid (enantiomer 2)]I[Pen]IP-NH2 (disulfide 3-11)', '150 nM'),
  ('[(3-Me)H]ICSRSLP[Oic]I[Pen]IP-NH2 (disulfide 3-11) [Example 444: ((3-Me)H)-IC+SRSLP-(Oic)-I-(Pen)+IP-NH2]', '130 nM');

[Sar]ICSRS[tBuAla]PPI[Pen]IP[PEG4]-OH (disulfide 3-11; N-terminus assumed; SMILES CC[C@H](C)[C@H](NC(=O)CNC)C(=O)N[C@H]1CSSC(C)(C)[C@@H](C(=O)N[C@H](C(=O)N2CCC[C@H]2C(=O)NCCOCCOCCOCCOCCC(=O)O)[C@@H](C)CC)NC(=O)[C@H]([C@@H](C)CC)NC(=O)[C@@H]2CCCN2C(=O)[C@@H]2CCCN2C(=O)[C@H](CC(C)(C)C)NC(=O)[C@H](CO)NC(=O)[C@H](CCCNC(=N)N)NC(=O)[C@H](CO)NC1=O) [Example 485: ((N-Me)G)-IC+SRS-((tBu)A)-PPI-(Pen)+IP-(PEG3(16atoms))-OH] has a reported rat MASP1 IC50 of 36 nM
